Molecular target: T1, Fas ligand (human, UniProt P48023 134-281, limits assumed)
T1 sequence (looked up): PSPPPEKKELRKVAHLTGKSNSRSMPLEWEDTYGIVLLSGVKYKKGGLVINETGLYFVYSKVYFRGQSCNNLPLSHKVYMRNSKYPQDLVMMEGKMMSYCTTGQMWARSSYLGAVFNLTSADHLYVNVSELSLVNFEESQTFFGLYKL
Experiment: phage ELISA
Endpoint: binding result

Consider the reported binding result for these binders:
>>> endpoint_result("I031F09 (scFv) scFv: QVQLVQSGAEVKKPGASVKVSCTVSGDSFSRHGISWVRQAPGQGLEWMGWISVYNGDTKYAQKVQGRVTMTTDTSTNTVYMELRRLRSDDTAVYYCARDEGRDLLTGYYWPNFFDSWGRGTLVTVSSGGGGSGGGGSGGGGSALSYVLTQPPSASGTPGQRVTISCSGSRPNIGGNTVNWYQQLPGAAPKLLIYSNSQRPSGVPDRFSGSKYGTSASLAISGLQSDDEADYYCAAWDDSLTGPVFGGGTKLTVLG")
"no binding"
>>> endpoint_result("I061H01 (scFv, also called 1061H01) scFv: QVQLVQSGGGLVKPGGSLRLSCAASGFTFSNAWMSWVRQAPGKGLQWVGRIKSKTDGGTTDYAAPVKGRFTISRDDSKNTLYLQMNSLKTEDTAVYYCTTFNPTYDILTGYYIGGYFQHWGQGTMVTVSSGGGGSGGGGSGGGGSQSVLTQPASVSGSPGQSITISCTGTSSDVGGYNYVSWYQQHPGKAPKLMIYEGSKRPSGVSNRFSGSKSGNTASLTISGLQAEDEADYYCSSYTTRSTRVFGGGTQLTVLG")
"no binding"
>>> endpoint_result("I031C03 (scFv) scFv: QMQLVQSGAEVRKPGSSVKVSCKASGGSFSSHVFSWVRQAPGQGLEWVGGITPKFATPNYAQKFQHRVTITADELTRTVFMDLSGLRSEDTAVYYCARGYDSSAFRAFDIWGQGTLVTVSSGGGGSGGGGSGGGGSAQSVLTQPPSVSAAPGQKVTISCSGSSSNIGNNYVSWYQQFPGTAPKLLIYDNNNRPSGVPDRFSGSKSGTSATLGITGLQTGDEADYYCGTWDRSLSVVVFGGGTKVTVLG")
"no binding"
>>> endpoint_result("I007H08 (scFv) scFv: QVQLQQSGPGLVKPSQILSLTCAISGDSVASNGAAWNWIRQSPSRGLEWLGRTYYRSKWYVDYAVSVKSRITINPDTSKNQFSLQLNSVTPEDTAVYYCARDRYDILTGYYYYGMDVWGQGTMVTVSSGGGGSGGGGSGGGGSQSALTQPASVSGSRGQSITISCTGTTGDVGGYDYVSWYQQHPGKAPKLLIYGNSNRPSGVPDRFSASKSGNTASLTISGLQAEDEADYFCNTYAPPGIIMFGGGTKLTVLG")
"no binding"

// next item, binding result requested
// query Which value of binding result has been reported for I018H08 (scFv, also called 1018H08) scFv: QVQLQQSGAEVKKPGASVNVSCKASGYTFTKYTMHWVRQAPGQGPEWMGWINGGSGDTKYSRKFQGRVTITKDTSASAAYMELSSLGSEDTALYYCARATYDPLTGYSFDGFDIWGQGTMVTVSSGGGGSGGGGSGGGGSQSVLTQPASVSGSPGQSITISCTGTSSDVGGYNYVSWYQQHPGKAPKLMIYEGSKRPSGVSNRFSGSKSGNTASLTISGLQAEDEADYYCSSYTTRSTRVFGGGTKLTILG in the records?
// result no binding
